Sourced from ChEMBL document CHEMBL4152386

This section lists IC50 readings for PI3K p110 beta/p85 alpha (Homo sapiens, UniProt P42338).
MEASUREMENT NAME: IC50 (µM)

A selection of reference data follows.
Cc1ccn2nc([C@H](C)Nc3ncnc4[nH]cc(Sc5cccc(O)c5)c34)n(-c3ccccc3)c(=O)c12; 0.17
Cc1ccn2nc([C@H](C)Nc3ncnc4[nH]cc(-c5cc(NS(C)(=O)=O)cc6[nH]ccc56)c34)n(-c3ccccc3)c(=O)c12; 0.01

I: Cc1ccn2nc([C@H](C)Nc3ncnc4[nH]cc(-c5cc(C(F)(F)F)ccc5O)c34)n(-c3ccccc3)c(=O)c12
II: Cc1ccn2nc([C@H](C)Nc3ncnc(N)c3-c3ccc(O)c(F)c3)n(-c3ccccc3)c(=O)c12
III: Cc1ccn2nc([C@H](C)Nc3ncnc4[nH]cc(Cc5cccc(O)c5)c34)n(-c3ccccc3)c(=O)c12
IV: COc1cccc(-c2c[nH]c3ncnc(N[C@@H](C)c4nn5ccc(C)c5c(=O)n4-c4ccccc4)c23)c1O
Order the items by recorded IC50; the first position goes to the largest value. The labels, placed in the requested order, form the answer.
III, II, IV, I
(III: 0.21 µM, II: 0.087 µM, IV: 0.014 µM, I: 0.0073 µM)

---

- SYSTEM UNDER TEST: Phosphatidylinositol 4,5-bisphosphate 3-kinase catalytic subunit gamma isoform (Homo sapiens)
- Sequence (P48736 whole entry, canonical isoform): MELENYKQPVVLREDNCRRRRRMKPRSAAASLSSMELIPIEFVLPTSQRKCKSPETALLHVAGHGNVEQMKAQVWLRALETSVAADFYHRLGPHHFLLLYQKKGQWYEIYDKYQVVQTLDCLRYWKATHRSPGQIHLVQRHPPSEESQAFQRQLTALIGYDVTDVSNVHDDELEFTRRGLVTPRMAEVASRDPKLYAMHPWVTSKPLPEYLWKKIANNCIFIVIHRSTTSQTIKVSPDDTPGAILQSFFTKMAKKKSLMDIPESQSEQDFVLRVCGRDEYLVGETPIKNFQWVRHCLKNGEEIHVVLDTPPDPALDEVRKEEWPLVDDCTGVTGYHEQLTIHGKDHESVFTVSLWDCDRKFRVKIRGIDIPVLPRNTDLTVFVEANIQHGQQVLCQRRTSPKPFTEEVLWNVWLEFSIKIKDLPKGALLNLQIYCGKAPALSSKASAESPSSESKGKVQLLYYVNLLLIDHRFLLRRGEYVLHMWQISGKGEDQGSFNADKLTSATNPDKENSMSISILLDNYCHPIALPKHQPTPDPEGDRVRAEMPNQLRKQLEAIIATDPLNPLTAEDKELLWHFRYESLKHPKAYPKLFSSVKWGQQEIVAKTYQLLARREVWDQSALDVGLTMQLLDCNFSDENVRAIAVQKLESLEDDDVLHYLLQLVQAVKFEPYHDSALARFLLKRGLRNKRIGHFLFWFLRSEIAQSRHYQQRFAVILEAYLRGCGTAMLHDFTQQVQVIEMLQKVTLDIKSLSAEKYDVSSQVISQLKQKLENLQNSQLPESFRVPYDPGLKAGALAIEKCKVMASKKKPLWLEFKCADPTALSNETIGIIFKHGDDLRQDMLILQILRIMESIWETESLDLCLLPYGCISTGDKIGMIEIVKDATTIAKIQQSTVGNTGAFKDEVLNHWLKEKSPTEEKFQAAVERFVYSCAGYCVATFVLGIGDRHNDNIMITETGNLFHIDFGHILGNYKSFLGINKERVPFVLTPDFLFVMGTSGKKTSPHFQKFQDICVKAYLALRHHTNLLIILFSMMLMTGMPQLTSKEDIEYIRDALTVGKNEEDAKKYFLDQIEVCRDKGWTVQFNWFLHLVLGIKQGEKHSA
- ASSAY OVERVIEW: Inhibition of recombinant human N-terminal His6-tagged full length p110gamma using PIP2 as substrate preincubated for 30 mins followed by substrate addition by HTRF assay
pIC50: −log10 of the molar value.
MEASUREMENT NAME: pIC50

A selection of reference data follows.
Cc1ccn2nc([C@H](C)Nc3ncnc(N)c3C(=O)Nc3cccc(O)c3)n(-c3ccccc3)c(=O)c12; 8.00
Cc1ccn2nc([C@H](C)Nc3ncnc4[nH]cc(-c5cc(O)cc(F)c5)c34)n(-c3ccccc3)c(=O)c12; 9.22
Cc1ccn2nc([C@H](C)Nc3ncnc(N)c3-c3ccc(O)cc3)n(-c3ccccc3)c(=O)c12; 6.80
Cc1ccn2nc([C@H](C)Nc3ncnc(N)c3Sc3cccc(O)c3)n(-c3ccccc3)c(=O)c12; 7.35
Cc1ccn2nc([C@H](C)Nc3ncnc(N)c3-c3ccc(O)c(F)c3)n(-c3ccccc3)c(=O)c12; 7.96

I: Cc1ccn2nc([C@H](C)Nc3ncnc(N)c3-c3cc(O)cc(F)c3)n(-c3ccccc3)c(=O)c12
II: Cc1ccn2nc([C@H](C)Nc3ncnc4[nH]cc(-c5cccc(NS(C)(=O)=O)c5)c34)n(-c3ccccc3)c(=O)c12
Hi team, can someone confirm which has the larger pIC50: I or II ? Thanks. Selection: enter the item's label.
II
(II: 8.51, I: 7.40)

A: Cc1ccn2nc([C@H](C)Nc3ncnc(N)c3-c3cc(O)cc(NS(C)(=O)=O)c3)n(-c3ccccc3)c(=O)c12
B: Cc1ccn2nc([C@H](C)Nc3ncnc(N)c3-c3cc(O)cc(C(F)(F)F)c3)n(-c3ccccc3)c(=O)c12
C: COc1cc(-c2c[nH]c3ncnc(N[C@@H](C)c4nn5ccc(C)c5c(=O)n4-c4ccccc4)c23)ccc1O
D: Cc1ccn2nc([C@H](C)Nc3ncnc(N)c3C#N)n(-c3ccccc3)c(=O)c12
Arrange these 4 compounds in increasing order of pIC50. The labels, placed in the requested order, form the answer.
D, A, B, C

---

- ASSAY OVERVIEW: Half life in Wistar rat at 1 mg/kg, iv
- Type: ADME, organism-based
- MEASUREMENT SETUP: in vivo
MEASUREMENT NAME: half-life (h)

P: Cc1ccn2nc([C@H](C)Nc3ncnc4[nH]cc(-c5cc(NS(C)(=O)=O)cc6[nH]ccc56)c34)n(-c3ccccc3)c(=O)c12
Q: Cc1ccn2nc([C@H](C)Nc3ncnc(N)c3-c3ccc(O)c(F)c3)n(-c3ccccc3)c(=O)c12
Hi team, can someone confirm which has the larger half-life: P or Q ? Thanks. Selection: enter the item's label.
P

---

- SYSTEM UNDER TEST: Phosphatidylinositol 4,5-bisphosphate 3-kinase catalytic subunit delta isoform (Mus musculus)
- Sequence (O35904 whole entry, the tested form may be a part, canonical isoform): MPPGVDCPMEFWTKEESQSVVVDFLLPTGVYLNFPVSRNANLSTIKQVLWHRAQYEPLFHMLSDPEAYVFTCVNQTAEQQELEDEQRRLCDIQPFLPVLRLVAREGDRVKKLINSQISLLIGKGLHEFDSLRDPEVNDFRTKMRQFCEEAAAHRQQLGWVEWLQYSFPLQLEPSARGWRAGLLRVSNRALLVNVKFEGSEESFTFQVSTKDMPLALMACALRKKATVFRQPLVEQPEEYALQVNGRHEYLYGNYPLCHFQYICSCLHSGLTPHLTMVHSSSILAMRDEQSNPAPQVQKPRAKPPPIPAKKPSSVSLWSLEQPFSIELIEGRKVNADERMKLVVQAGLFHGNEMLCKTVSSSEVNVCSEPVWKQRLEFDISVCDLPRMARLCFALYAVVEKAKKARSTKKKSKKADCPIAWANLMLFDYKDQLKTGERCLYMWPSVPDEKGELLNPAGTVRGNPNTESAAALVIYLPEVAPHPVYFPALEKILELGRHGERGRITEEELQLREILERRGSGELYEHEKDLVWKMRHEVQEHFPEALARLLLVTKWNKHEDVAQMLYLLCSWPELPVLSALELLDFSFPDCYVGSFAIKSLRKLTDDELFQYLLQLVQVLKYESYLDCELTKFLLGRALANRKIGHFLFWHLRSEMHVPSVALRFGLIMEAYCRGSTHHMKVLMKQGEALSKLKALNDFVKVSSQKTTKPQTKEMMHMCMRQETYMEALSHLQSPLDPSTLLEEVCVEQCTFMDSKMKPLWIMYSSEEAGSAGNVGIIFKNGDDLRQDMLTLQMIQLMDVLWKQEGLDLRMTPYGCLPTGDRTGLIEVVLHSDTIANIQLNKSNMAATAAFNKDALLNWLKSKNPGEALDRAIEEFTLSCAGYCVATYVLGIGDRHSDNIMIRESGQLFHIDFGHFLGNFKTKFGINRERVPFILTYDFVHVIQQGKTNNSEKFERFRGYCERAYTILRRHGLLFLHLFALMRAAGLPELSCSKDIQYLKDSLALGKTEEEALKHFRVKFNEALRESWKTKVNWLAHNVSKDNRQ
- ASSAY OVERVIEW: Inhibition of mouse ABD-truncated p110delta catalytic subunit (unknown origin) expressed in Sf9 cells using diC8-PIP2 substrate incubated for 1 hr by fluorescence polarization assay
MEASUREMENT NAME: IC50 (µM)
Answer in µM, number only, no unit symbol.

I'd like to know its IC50. The compound in question is Cc1ccccc1-n1c(CN2CNc3c(N)ncnc32)nc2cccc(C)c2c1=O
0.13

---

- SYSTEM UNDER TEST: Phosphatidylinositol 4,5-bisphosphate 3-kinase catalytic subunit gamma isoform (Homo sapiens)
- ASSAY OVERVIEW: Inhibition of recombinant human N-terminal His6-tagged full length p110gamma using PIP2 as substrate preincubated for 30 mins followed by substrate addition by HTRF assay
MEASUREMENT NAME: IC50 (nM)

A selection of reference data follows.
Cc1ccn2nc([C@H](C)Nc3ncnc(N)c3-c3cnc(N)nc3)n(-c3ccccc3)c(=O)c12; 120
Cc1ccn2nc([C@H](C)Nc3ncnc4[nH]cc(-c5cc(C(F)(F)F)ccc5O)c34)n(-c3ccccc3)c(=O)c12; 3.3
Cc1ccn2nc([C@H](C)Nc3ncnc4[nH]cc(-c5cccc(F)c5O)c34)n(-c3ccccc3)c(=O)c12; 12

a: Cc1ccn2nc([C@H](C)Nc3ncnc4[nH]cc(-c5ccc(O)cc5)c34)n(-c3ccccc3)c(=O)c12
b: Cc1ccn2nc([C@H](C)Nc3ncnc(N)c3-c3ccc4cc[nH]c4c3)n(-c3ccccc3)c(=O)c12
c: COc1cccc(-c2c[nH]c3ncnc(N[C@@H](C)c4nn5ccc(C)c5c(=O)n4-c4ccccc4)c23)c1O
Order the items by recorded IC50; the first position goes to the largest value. The labels, placed in the requested order, form the answer.
b, c, a
(b: 420 nM, c: 81 nM, a: 0.7 nM)

P: Cc1ccn2nc([C@H](C)Nc3ncnc4[nH]cc(Cc5cccc(O)c5)c34)n(-c3ccccc3)c(=O)c12
Q: Cc1ccn2nc([C@H](C)Nc3ncnc(N)c3-c3ccc4oc(=O)[nH]c4c3)n(-c3ccccc3)c(=O)c12
Hi team, can someone confirm which has the larger IC50: P or Q ? Thanks. Selection: enter the item's label.
Q
(Q: 430 nM, P: 64 nM)

---

- ASSAY OVERVIEW: Drug metabolism in human liver microsomes assessed as disappearance of parent compound at 5 uM after 30 mins in presence of NADPH by UPLC-MS/MS analysis
- Assay type: ADME, microsome
- MEASUREMENT SETUP: read-out: Drug metabolism
MEASUREMENT NAME: metabolised at 0.5 h, 5 µM (%)

a: Cc1ccn2nc([C@H](C)Nc3ncnc(N)c3Sc3cccc(O)c3)n(-c3ccccc3)c(=O)c12
b: Cc1ccn2nc([C@H](C)Nc3ncnc4[nH]cc(-c5cc(C(F)(F)F)ccc5O)c34)n(-c3ccccc3)c(=O)c12
Could you determine which record has the numerically smaller metabolised at 0.5 h, 5 µM? Candidates: a and b Selection: enter the item's label.
b
(b: 58%, a: 100%)

---

- SYSTEM UNDER TEST: PI3-kinase p110-delta/p85-alpha (Homo sapiens)
- Sequence (P27986 whole entry): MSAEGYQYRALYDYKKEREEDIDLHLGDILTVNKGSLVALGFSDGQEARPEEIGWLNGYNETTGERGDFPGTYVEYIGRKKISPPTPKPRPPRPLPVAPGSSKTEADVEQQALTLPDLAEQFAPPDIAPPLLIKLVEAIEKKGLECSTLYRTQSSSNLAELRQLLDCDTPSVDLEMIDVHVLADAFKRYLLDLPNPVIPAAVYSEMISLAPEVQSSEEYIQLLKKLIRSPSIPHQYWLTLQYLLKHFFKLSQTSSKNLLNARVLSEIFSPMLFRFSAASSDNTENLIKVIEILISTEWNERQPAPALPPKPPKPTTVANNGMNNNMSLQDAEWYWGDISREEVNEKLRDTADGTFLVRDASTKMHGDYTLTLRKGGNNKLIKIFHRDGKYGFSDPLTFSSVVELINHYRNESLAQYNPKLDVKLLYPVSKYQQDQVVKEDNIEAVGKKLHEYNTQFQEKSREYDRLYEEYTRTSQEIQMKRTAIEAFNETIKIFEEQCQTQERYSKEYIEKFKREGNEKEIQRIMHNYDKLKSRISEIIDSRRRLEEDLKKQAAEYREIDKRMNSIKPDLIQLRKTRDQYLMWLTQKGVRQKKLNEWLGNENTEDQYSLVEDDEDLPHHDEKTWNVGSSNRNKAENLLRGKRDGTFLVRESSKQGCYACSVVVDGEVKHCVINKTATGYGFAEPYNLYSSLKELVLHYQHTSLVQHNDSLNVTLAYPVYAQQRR
- Sequence (O00329 whole entry): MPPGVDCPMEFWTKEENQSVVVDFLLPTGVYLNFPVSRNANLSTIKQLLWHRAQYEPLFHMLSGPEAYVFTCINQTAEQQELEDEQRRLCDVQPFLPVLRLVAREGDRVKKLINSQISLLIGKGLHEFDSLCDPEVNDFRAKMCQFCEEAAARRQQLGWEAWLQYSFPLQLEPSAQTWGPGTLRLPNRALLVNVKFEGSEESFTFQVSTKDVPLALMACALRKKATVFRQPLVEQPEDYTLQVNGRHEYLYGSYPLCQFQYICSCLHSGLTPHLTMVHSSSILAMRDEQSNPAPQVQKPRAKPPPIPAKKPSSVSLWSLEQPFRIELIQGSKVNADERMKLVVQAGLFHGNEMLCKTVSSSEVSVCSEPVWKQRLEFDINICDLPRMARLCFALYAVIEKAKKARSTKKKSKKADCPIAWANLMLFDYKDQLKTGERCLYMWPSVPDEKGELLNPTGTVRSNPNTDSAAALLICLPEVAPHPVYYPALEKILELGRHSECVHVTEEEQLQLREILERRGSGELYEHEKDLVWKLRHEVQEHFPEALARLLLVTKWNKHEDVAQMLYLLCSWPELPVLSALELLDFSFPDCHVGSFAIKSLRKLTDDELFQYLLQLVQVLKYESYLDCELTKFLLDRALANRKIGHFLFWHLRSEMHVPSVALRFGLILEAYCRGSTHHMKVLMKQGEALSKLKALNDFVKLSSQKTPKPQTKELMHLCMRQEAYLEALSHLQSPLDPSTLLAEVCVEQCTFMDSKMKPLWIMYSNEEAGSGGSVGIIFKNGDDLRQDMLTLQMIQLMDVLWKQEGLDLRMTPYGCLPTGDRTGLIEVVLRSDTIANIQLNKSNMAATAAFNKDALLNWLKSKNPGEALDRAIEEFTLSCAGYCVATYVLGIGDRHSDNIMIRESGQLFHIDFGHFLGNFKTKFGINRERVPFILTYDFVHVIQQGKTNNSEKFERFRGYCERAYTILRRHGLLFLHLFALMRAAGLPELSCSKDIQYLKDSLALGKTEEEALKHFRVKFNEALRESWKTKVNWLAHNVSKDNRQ
pIC50: −log10 of the molar value.
MEASUREMENT NAME: pIC50

Cc1ccn2nc([C@H](C)Nc3ncnc4[nH]cc(Sc5cccc(O)c5)c34)n(-c3ccccc3)c(=O)c12; 9.00
Cc1ccn2nc([C@H](C)Nc3ncnc4[nH]cc(Cc5cccc(O)c5)c34)n(-c3ccccc3)c(=O)c12; 8.85
Cc1ccn2nc([C@H](C)Nc3ncnc4[nH]cc(-c5cccc6cc[nH]c56)c34)n(-c3ccccc3)c(=O)c12; 8.89

I: Cc1ccn2nc([C@H](C)Nc3ncnc(N)c3C#N)n(-c3ccccc3)c(=O)c12
II: Cc1ccn2nc([C@H](C)Nc3ncnc(N)c3Sc3cccc(O)c3)n(-c3ccccc3)c(=O)c12
Could you determine which record has the numerically smaller pIC50? Candidates: I and II Selection: enter the item's label.
II
(II: 8.74, I: 9.00)

---

- ASSAY OVERVIEW: Drug metabolism in human liver microsomes assessed as disappearance of parent compound at 5 uM after 30 mins in presence of NADPH by UPLC-MS/MS analysis
- Assay type: ADME, microsome
- MEASUREMENT SETUP: read-out: Drug metabolism
MEASUREMENT NAME: metabolised at 0.5 h, 5 µM (%)

Cc1ccn2nc([C@H](C)Nc3ncnc(N)c3-c3ccc(O)c(F)c3)n(-c3ccccc3)c(=O)c12; 71
Cc1ccn2nc([C@H](C)Nc3ncnc4[nH]cc(-c5ccccc5O)c34)n(-c3ccccc3)c(=O)c12; 99
Cc1ccn2nc([C@H](C)Nc3ncnc4[nH]cc(-c5cccc(NS(C)(=O)=O)c5)c34)n(-c3ccccc3)c(=O)c12; 74
Cc1ccn2nc([C@H](C)Nc3ncnc4[nH]cc(-c5cn[nH]c5)c34)n(-c3ccccc3)c(=O)c12; 97

I: Cc1ccn2nc([C@H](C)Nc3ncnc(N)c3-c3cc(O)cc(F)c3)n(-c3ccccc3)c(=O)c12
II: Cc1ccn2nc([C@H](C)Nc3ncnc4[nH]cc(-c5cccc(F)c5O)c34)n(-c3ccccc3)c(=O)c12
Hi team, can someone confirm which has the larger metabolised at 0.5 h, 5 µM: I or II ? Thanks. Selection: enter the item's label.
I

A: Cc1ccn2nc([C@H](C)Nc3ncnc(N)c3-c3ccc(O)cc3)n(-c3ccccc3)c(=O)c12
B: Cc1ccn2nc([C@H](C)Nc3ncnc(N)c3-c3cc(O)cc(Cl)c3)n(-c3ccccc3)c(=O)c12
Could you determine which record has the numerically smaller metabolised at 0.5 h, 5 µM? Candidates: A and B Selection: enter the item's label.
B

1: Cc1ccn2nc([C@H](C)Nc3ncnc4[nH]cc(-c5cc(O)cc(NS(C)(=O)=O)c5)c34)n(-c3ccccc3)c(=O)c12
2: Cc1ccn2nc([C@H](C)Nc3ncnc4[nH]cc(Cc5cccc(O)c5)c34)n(-c3ccccc3)c(=O)c12
Hi team, can someone confirm which has the larger metabolised at 0.5 h, 5 µM: 1 or 2 ? Thanks. Selection: enter the item's label.
2
(2: 100%, 1: 67%)
